- EXPERIMENTAL_TARGET: human somatostatin receptor subtype SSTR3 (human) (UniProt P32745)
- Sequence (P32745 whole entry): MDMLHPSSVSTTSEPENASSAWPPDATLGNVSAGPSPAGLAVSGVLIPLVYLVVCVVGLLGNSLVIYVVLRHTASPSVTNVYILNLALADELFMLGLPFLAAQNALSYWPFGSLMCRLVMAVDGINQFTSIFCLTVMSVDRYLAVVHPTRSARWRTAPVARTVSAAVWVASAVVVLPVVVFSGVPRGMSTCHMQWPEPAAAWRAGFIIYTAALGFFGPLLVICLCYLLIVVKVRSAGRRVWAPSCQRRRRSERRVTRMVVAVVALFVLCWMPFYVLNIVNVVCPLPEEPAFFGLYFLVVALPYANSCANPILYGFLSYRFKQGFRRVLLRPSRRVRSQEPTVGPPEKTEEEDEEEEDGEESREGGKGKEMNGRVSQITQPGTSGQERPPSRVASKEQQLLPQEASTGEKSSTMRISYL
- EXPERIMENT: FACS, transfected HEK-293 cells; normalised to Compound 1
*1 amine or outer side, *2 acyl side, *3 side chain or, on linkers, in order; H or OH if unused. Bridges are numbered along the chain shown (N, C = ends). Primed or numbered codes have the meaning given here. [ ]: non-standard residue; d: D form. N(2-mercaptoethyl)Gly = O=C(CN(CCS[*:3])[*:1])[*:2]; FITC′ = fluorescein isothiocyanate; Orn = NCCC[C@H](N)C(=O)O; Aib = CC(C)(N)C(=O)O; GABA = NCCCC(=O)O
READOUT_TYPE: Binding affinity relative to Compound 1 (% of Compound 1)
Lab note: record just the number, no unit beside it.

Consider the reported Binding affinity relative to Compound 1 (% of Compound 1) for these binders:
BINDER	ENDPOINT_RESULT
{FITC′-GABA}-[dF]CRFF[dW]KTF[N(2-mercaptoethyl)Gly]-NH2 (disulfide 2-10) [Compound 8]	68
XCFWXXTFX (FITC-GABA-DPhe-Cys*-Phe-Trp-DTrp-HomoLys-Thr-Phe-GlyS2*-NH2 (* = S-S bond; HomoLys = homolysine; GlyS2 = N-thioethyl glycine; C-terminal amide)) [Compound 16]	71
{FITC′-GABA}-[dF]CYW[dW]KTF[N(2-mercaptoethyl)Gly]-NH2 (disulfide 2-9) [Compound 4]	141
{FITC′-GABA}-[dF]CFW[dW][Aib]TF[N(2-mercaptoethyl)Gly]-NH2 (disulfide 2-9) [Compound 13]	35
{FITC′-GABA}-[dF]RCF[dW][Orn]TF[N(2-mercaptoethyl)Gly]-NH2 (disulfide 3-9) [Compound 5]	18
XCFWXKTFX (FITC-GABA-DPhe-Cys*-Phe-Trp-DTrp-Lys-Thr-Phe-GlyS2*-NH2 (* = S-S bond; GlyS2 = N-thioethyl glycine; FITC-GABA on the N-terminal amine; C-terminal amide)) [Compound 1]	100
XCFWXXTFX (FITC-GABA-DPhe-Cys*-Phe-Trp-DTrp-Orn-Thr-Phe-GlyS2*-NH2 (* = S-S bond; GlyS2 = N-thioethyl glycine; Orn = ornithine; C-terminal amide)) [Compound 3]	92
{FITC′-GABA}-[dF]CFW[dW]RTF[N(2-mercaptoethyl)Gly]-NH2 (disulfide 2-9) [Compound 15]	79

Inquiry: Recorded Binding affinity relative to Compound 1 (% of Compound 1) of {FITC′-GABA}-[dF]RCY[dW]KTF[N(2-mercaptoethyl)Gly]-NH2 (disulfide 3-9) [Compound 6] , please.
Reply text: 132

Inquiry: Recorded Binding affinity relative to Compound 1 (% of Compound 1) of {FITC′-GABA}-[dF]CY[dW][Orn]TF[N(2-mercaptoethyl)Gly]-NH2 (disulfide 2-8) [Compound 7] , please.
Reply text: 12

Inquiry: Recorded Binding affinity relative to Compound 1 (% of Compound 1) of {FITC′-GABA}-[dF]RCF[dW]KTF[N(2-mercaptoethyl)Gly]-NH2 (disulfide 3-9) [Compound 2] , please.
Reply text: 24
